pIC50: −log10 of the molar value.
Consider the following compounds; for each one, report its pIC50.

In: Name the value of pIC50 reported for CC(C)(C)OC(=O)Nc1nc(-c2ccncc2)sc1C#CCN1CCOCC1 when tested on MINK1 (Homo sapiens).
Sequence (Q8N4C8 whole entry, species assumed): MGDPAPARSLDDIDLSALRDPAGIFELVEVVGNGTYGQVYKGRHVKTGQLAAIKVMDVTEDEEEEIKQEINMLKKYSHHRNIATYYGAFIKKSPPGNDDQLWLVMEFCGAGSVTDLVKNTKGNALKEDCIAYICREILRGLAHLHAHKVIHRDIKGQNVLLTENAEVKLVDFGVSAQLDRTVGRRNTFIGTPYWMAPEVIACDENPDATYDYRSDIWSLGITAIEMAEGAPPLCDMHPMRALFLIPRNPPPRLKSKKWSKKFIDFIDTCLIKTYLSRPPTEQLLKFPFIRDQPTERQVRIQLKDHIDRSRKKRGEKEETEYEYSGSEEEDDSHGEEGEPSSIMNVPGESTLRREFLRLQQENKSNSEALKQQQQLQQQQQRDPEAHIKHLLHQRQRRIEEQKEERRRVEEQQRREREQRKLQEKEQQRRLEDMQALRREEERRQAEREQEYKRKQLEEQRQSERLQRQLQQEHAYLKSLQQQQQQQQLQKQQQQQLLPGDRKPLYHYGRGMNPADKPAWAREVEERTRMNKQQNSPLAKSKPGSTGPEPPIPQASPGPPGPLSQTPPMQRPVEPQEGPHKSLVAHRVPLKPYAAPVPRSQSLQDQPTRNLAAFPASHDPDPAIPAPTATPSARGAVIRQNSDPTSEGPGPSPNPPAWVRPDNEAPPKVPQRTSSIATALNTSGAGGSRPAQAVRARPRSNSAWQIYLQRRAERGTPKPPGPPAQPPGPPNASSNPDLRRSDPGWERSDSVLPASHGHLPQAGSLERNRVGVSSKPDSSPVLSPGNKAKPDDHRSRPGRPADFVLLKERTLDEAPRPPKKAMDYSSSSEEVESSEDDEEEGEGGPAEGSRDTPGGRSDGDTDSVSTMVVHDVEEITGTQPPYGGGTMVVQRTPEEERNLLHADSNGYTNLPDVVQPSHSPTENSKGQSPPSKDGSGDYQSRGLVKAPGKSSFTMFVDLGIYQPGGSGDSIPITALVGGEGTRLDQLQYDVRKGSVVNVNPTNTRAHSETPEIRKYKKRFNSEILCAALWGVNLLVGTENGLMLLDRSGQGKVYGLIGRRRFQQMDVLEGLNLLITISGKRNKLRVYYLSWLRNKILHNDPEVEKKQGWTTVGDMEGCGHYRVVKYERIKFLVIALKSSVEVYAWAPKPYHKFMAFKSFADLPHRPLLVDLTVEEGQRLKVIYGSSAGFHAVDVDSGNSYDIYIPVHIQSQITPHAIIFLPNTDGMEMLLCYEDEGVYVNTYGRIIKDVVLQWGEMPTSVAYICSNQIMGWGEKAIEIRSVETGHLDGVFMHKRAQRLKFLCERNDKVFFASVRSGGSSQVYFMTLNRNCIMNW
Out: 4.00 to 5.00

In: Name the value of pIC50 reported for Nc1ncsc1C#Cc1cnc2[nH]ccc2c1 when tested on MINK1 (Homo sapiens).
Out: 5.00 to 6.00

In: Name the value of pIC50 reported for c1ccc(Cc2c[nH]c3ncsc23)cc1 [Compound A7, 6-benzyl-4H-pyrrolo[2,3-d]thiazole] when tested on MINK1 (Homo sapiens).
Out: 5.00 to 6.00

In: Name the value of pIC50 reported for Nc1ncsc1C#Cc1cccc(O)c1 when tested on MINK1 (Homo sapiens).
Out: 5.00 to 6.00

In: Name the value of pIC50 reported for CC(C)(C)OC(=O)Nc1ncsc1C#CCN1C(=O)c2ccccc2C1=O when tested on MINK1 (Homo sapiens).
Out: 4.00 to 5.00
